Target: IKZF2 (Homo sapiens, UniProt Q96SW2+Q9UKS7)
Construct: expressed in transfected cells
Sequence (Q9UKS7 1-500 isoform Q9UKS7-2): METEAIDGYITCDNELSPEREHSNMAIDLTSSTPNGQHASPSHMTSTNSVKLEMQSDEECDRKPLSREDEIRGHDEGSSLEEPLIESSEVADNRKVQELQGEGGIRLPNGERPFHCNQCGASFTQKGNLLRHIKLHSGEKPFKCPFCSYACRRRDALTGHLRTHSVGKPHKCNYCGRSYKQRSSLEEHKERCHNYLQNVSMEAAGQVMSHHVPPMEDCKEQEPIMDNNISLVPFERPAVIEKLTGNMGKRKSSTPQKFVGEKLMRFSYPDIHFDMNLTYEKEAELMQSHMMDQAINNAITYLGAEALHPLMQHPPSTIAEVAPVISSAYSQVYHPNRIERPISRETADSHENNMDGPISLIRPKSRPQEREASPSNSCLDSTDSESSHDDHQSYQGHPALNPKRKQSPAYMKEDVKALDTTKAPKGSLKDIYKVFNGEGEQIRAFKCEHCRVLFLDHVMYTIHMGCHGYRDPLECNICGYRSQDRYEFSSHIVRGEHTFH
Sequence (Q96SW2 whole entry): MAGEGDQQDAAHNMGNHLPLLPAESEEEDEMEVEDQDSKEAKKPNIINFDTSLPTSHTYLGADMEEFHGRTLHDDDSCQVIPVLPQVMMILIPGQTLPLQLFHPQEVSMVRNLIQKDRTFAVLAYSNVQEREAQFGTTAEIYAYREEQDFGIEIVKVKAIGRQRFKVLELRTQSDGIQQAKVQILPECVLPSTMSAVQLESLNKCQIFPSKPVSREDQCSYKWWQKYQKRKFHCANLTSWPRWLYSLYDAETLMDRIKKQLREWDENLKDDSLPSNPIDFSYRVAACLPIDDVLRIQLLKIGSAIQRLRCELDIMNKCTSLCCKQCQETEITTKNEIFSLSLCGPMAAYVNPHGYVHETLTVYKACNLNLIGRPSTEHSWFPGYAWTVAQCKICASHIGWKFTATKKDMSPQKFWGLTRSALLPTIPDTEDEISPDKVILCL
Sequence (Q16531 whole entry partner): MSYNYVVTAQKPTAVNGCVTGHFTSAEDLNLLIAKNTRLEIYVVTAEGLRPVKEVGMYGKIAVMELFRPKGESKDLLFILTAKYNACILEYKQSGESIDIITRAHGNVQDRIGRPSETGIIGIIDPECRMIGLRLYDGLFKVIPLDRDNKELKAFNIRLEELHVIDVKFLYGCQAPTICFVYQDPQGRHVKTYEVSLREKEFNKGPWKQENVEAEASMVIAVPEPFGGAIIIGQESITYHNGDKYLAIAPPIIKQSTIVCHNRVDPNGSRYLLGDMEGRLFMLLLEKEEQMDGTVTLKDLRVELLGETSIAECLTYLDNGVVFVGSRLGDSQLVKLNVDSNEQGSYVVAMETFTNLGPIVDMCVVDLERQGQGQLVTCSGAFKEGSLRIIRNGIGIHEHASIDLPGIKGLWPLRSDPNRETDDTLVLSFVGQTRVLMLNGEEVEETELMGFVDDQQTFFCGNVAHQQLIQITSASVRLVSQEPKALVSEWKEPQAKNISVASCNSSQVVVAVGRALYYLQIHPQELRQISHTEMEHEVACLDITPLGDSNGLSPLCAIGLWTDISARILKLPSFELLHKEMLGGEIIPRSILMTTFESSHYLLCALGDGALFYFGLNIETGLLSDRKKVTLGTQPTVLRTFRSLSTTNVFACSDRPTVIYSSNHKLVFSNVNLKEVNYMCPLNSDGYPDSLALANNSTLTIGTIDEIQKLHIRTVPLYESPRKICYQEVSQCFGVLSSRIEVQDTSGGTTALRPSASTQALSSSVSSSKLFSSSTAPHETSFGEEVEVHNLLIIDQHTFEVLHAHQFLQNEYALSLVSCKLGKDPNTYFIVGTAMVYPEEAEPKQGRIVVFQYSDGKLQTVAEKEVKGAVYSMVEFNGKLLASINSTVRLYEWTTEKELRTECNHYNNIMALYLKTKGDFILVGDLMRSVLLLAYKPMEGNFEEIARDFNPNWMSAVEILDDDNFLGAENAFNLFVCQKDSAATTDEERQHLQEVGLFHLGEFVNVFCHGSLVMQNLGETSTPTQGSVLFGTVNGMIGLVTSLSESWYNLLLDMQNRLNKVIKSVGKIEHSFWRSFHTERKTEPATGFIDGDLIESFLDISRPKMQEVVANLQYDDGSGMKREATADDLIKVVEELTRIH
Assay: HiBiT protein tagging assay, in vitro IKZF2 degradation (HEK293)
Format: cell-based
Conditions: HEK293, HiBiT assay, HEK293, 18-24 hr incubation, normalized to DMSO control; read-out: IKZF2 Dmax (maximum degradation at the highest concentration tested)
measured metric: Dmax (%)

Worked examples follow.
N#C[C@H]1CC[C@H](NCc2ccc3c(c2)CN(C2CCC(=O)NC2=O)C3=O)CC1 (some centres unmarked) [Example 80] ... 92
O=C1CCC(N2Cc3cc(CN[C@H]4CCN(Cc5ccccc5)C4)ccc3C2=O)C(=O)N1 (some centres unmarked) [Example 19] ... 52
O=C1CCC(N2Cc3cc(CNC4CCC(F)(F)CC4)ccc3C2=O)C(=O)N1 (centres unmarked) [Example 7] ... 80
O=C1CCC(N2Cc3cc(CNC4CCCC5(CCCC5)C4)ccc3C2=O)C(=O)N1 (centres unmarked) [Example 133] ... 72
O=C1CCC(N2Cc3cc(CN[C@H]4CC[C@H](c5ccccc5)CC4)ccc3C2=O)C(=O)N1 (some centres unmarked) [Example 32] ... 85

[a] O=C1CCC(N2Cc3cc(CN[C@@H]4CCCC[C@@H]4Cc4ccccc4)ccc3C2=O)C(=O)N1 (some centres unmarked) [Example 68]
[b] O=C1CCC(N2Cc3cc(CNC4(C5CC5)CCCCC4)ccc3C2=O)C(=O)N1 (centres unmarked) [Example 150]
Which item exceeds the other in Dmax, a or b ? Please indicate the selected item by its label.
a

[a] O=C1CCC(N2Cc3cc(CNC4CC5CCC(C5)C4)ccc3C2=O)C(=O)N1 (centres unmarked) [Example 105]
[b] O=C1CCC(N2Cc3cc(CN[C@@H]4CCCN(c5ccccc5)C4)ccc3C2=O)C(=O)N1 (some centres unmarked) [Example 30]
Which item exceeds the other in Dmax, a or b ? Please indicate the selected item by its label.
a

[1] O=C1CCC(N2Cc3cc(CN[C@H]4CCC[C@H](Cc5ccccc5)C4)ccc3C2=O)C(=O)N1 (relative stereo) [Example 11]
[2] CO[C@H]1CCCC[C@H]1NCc1ccc2c(c1)CN(C1CCC(=O)NC1=O)C2=O (some centres unmarked) [Example 107]
Which item exceeds the other in Dmax, 1 or 2 ? Please indicate the selected item by its label.
1

Value source: patent US20240124412A1
